# subject.of.test: beta-catenin (human)
# Sequence (B6V8E6 146-665 limits assumed): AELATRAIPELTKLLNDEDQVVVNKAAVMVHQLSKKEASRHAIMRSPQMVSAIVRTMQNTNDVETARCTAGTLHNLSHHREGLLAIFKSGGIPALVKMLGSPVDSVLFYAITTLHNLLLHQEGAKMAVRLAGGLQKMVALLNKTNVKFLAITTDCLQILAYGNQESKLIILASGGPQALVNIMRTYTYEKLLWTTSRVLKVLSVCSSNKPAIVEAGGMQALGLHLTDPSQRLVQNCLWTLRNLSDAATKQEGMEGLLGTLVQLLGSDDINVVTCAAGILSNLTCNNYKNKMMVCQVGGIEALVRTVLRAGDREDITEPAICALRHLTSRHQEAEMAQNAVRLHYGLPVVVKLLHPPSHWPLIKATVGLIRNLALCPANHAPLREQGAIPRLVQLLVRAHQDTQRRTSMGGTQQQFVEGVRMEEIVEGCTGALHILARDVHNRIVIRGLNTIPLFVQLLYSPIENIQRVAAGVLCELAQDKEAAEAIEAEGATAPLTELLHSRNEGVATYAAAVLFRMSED
# assay.info: fluorescence polarization
*1 amine or outer side, *2 acyl side, *3 side chain or, on linkers, in order; H or OH if unused. Bridges are numbered along the chain shown (N, C = ends). Primed or numbered codes have the meaning given here. [ ]: non-standard residue; d: D form. B5(4) = 2-amino-2-(pent-4-en-1-yl)hept-6-enoic acid, stapled through each of its two olefin groups with other olefin-containing amino acid residues, O=C(C(CCCC=[*:3])(CCCC=[*:4])N[*:1])[*:2]; PyrS2″ = (S)-3-amino-1-((pent-4-en-1-yloxy)carbonyl)pyrrolidine-3-carboxylic acid (olefin stapling residue), C=CCCCOC(=O)N1CC[C@@](N[*:1])(C(=O)[*:2])C1; PyrS2(5) = (S)-3-amino-1-((pent-4-en-1-yloxy)carbonyl)pyrrolidine-3-carboxylic acid, C=CCCCOC(=O)N1CC[C@@](N[*:1])(C(=O)[*:2])C1; Phe(3-COOH) = N[C@@H](Cc1cccc(C(=O)O)c1)C(=O)O; 2F3MeF = Cc1cccc(C[C@H](N[*:1])C(=O)[*:2])c1F; Bta = N[C@@H](Cc1csc2ccccc12)C(=O)O; αAllylPro = C=CC[C@@]1(C(=O)O)CCCN1; tBuAla = CC(C)(C)C[C@H](N)C(=O)O; 3Thi = N[C@@H](Cc1ccsc1)C(=O)O; TfeGA = not defined here; dGlnR = not defined here; GlnR = not defined here; Aib = CC(C)(N)C(=O)O
Documented IC50 across a set of binders

Ac-[αAllylPro]DL[B5(4)]D[Phe(3-COOH)]AAF[dGlnR][PyrS2(5)][3Thi][Bta]K-NH2 (bridge 10-14; not fully specified (bridges); printed as Ac-PL3-Asp-Leu-B5-Asp-3COOHF-Ala-Ala-Phe-DGlnR*3-PyrS2-3Thi-BztA-Lys*3-NH2; reading uncertain; also: DGlnR10 and Lys14 marked *3) [I-14]    < 50 nM
Ac-[αAllylPro]D[tBuAla][B5(4)]D[TfeGA]VAFK[PyrS2″][2F3MeF][Bta][GlnR]A-NH2 (bridge 10-14; not fully specified (bridges); reading uncertain; also: Lys*3 and GlnR*3 marked *3) [I-124]    < 50 nM

Now for a further binder.
Query (binder): Ac-[αAllylPro]D[tBuAla][B5(4)]D[TfeGA][Aib]AFK[PyrS2(5)][2F3MeF][Bta][GlnR]A-NH2 (bridge 10-14; not fully specified (bridges); reading uncertain; also: Lys*3 and GlnR*3 marked *3) [I-121] ; field requested: IC50
< 50 nM
